Values were extracted from patent US20220048967A1.

# TARGET OR TEST SYSTEM: human GLP-1 receptor (GLP-1R) (human, UniProt P43220 24-463)
# TEST SUMMARY: cell-based or functional assay

- BINDER: "YXEGTFTSDYSILLDKKAQQAFIEYLIEGGPSSGAPPPS (Aib2, (2-[2-(2-Amino-ethoxy)-ethoxy]-acetyl)2-(γ-Glu)-CO-(CH2)18-CO2H on K17, C-terminal NH2) [Example 254]"
  hGLP1R cAMP Rel EC50, nM: 0.0553
- BINDER: "XXEGTFTSDYSIXLDEKAQXAFIEYLIAGGPSSGAPPPS (not fully specified; D-Tyr1, Aib2, αMeL13, (2-[2-(2-Amino-ethoxy)-ethoxy]-acetyl)2-(γ-Glu)-CO-(CH2)18-CO2H on K17, Aib20, C-terminal NH2) [Example 341]"
  hGLP1R cAMP Rel EC50, nM: 0.373
- BINDER: "YXEGTXTSDYSILLDKKAQXAFIEYLIEGGPSSG (Aib2, αMeF6, (2-[2-(2-Amino-ethoxy)-ethoxy]-acetyl)2-(γ-Glu)-CO-(CH2)16-CO2H on K17, Aib20, C-terminal NH2) [Example 301]"
  hGLP1R cAMP Rel EC50, nM: 0.0441
- BINDER: "YXEGTFTSDYSIXLDKKAQXEFIEYLIAGGPSSGAPPPS (Aib2, αMeL13, (2-[2-(2-Amino-ethoxy)-ethoxy]-acetyl)2-(γ-Glu)-CO-(CH2)18-CO2H on K17, Aib20, C-terminal NH2) [Example 289]"
  hGLP1R cAMP Rel EC50, nM: 0.0544
- BINDER: "YXEGTXTSDYSILLDEKAQXAFIEYLIEGGPSSG (Aib2, αMeF6, (2-[2-(2-Amino-ethoxy)-ethoxy]-acetyl)2-(γ-Glu)-CO-(CH2)16-CO2H on K17, Aib20, C-terminal NH2) [Example 307]"
  hGLP1R cAMP Rel EC50, nM: 0.0437
- BINDER: "XXEGTFTSDYSIXLDXKAQXAFVEYLIAGGPSSGAPPPS (D-Tyr1, Aib2, αMeL13, Orn16, (2-[2-(2-Amino-ethoxy)-ethoxy]-acetyl)2-(γ-Glu)-CO-(CH2)18-CO2H on K17, Aib20, C-terminal NH2) [Example 358]"
  hGLP1R cAMP Rel EC50, nM: 0.117
- BINDER: "YXEGTXTSDYSIXLDXKAQXEFIXYLIEGGPSSGAPPPS (Aib2, αMeF(2F)6, Aib13, Orn16, (2-[2-(2-Amino-ethoxy)-ethoxy]-acetyl)2-(γ-Glu)-CO-(CH2)16-CO2H on K17, Aib20, D-Glu24, C-terminal NH2) [Example 247]"
  hGLP1R cAMP Rel EC50, nM: 0.0491
- BINDER: "YXEGTFTSDYSIXLDKKAQXEFIEYLIAGGPSSG (Aib2, αMeL13, (2-[2-(2-Amino-ethoxy)-ethoxy]-acetyl)2-(γ-Glu)-CO-(CH2)16-CO2H on K17, Aib20, C-terminal NH2) [Example 306]"
  hGLP1R cAMP Rel EC50, nM: 0.0711
- BINDER: "YXEGTFTSDYSIXLDKKAQXAFIEYLIEGGPSSG (Aib2, αMeL13, (2-[2-(2-Amino-ethoxy)-ethoxy]-acetyl)2-(γ-Glu)-CO-(CH2)16-CO2H on K17, Aib20, C-terminal NH2) [Example 300]"
  hGLP1R cAMP Rel EC50, nM: 0.0867
- BINDER: "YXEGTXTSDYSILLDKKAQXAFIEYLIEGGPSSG (Aib2, αMeF(2F)6, (2-[2-(2-Amino-ethoxy)-ethoxy]-acetyl)2-(γ-Glu)-CO-(CH2)16-CO2H on K17, Aib20, C-terminal NH2) [Example 302]"
  hGLP1R cAMP Rel EC50, nM: 0.0275
- BINDER: "XXEGTFTSDYSIXLDKKAQXAFIXYLIAGGPSSGAPPPS (D-Tyr1, Aib2, αMeL13, (2-[2-(2-Amino-ethoxy)-ethoxy]-acetyl)2-(γ-Glu)-CO-(CH2)18-CO2H on K17, Aib20, D-Glu24, C-terminal NH2) [Example 352]"
  hGLP1R cAMP Rel EC50, nM: 0.142
- BINDER: "YXEGTFTSDYSILLDKKAQSAFIEYLIEGGPSSGAPPPS (Aib2, (2-[2-(2-Amino-ethoxy)-ethoxy]-acetyl)2-(γ-Glu)-CO-(CH2)18-CO2H on K17, C-terminal NH2) [Example 263]"
  hGLP1R cAMP Rel EC50, nM: 0.0785
- BINDER: "YXEGTFTSDYSIXLDKKAQXAFIEYLIAGGPSSGAPPPS (Aib2, αMeL13, (2-[2-(2-Amino-ethoxy)-ethoxy]-acetyl)2-(γ-Glu)-CO-(CH2)1s-CO2H (so in the source); probably (CH2)18) on K17, Aib20, C-terminal NH2) [Example 324]"
  hGLP1R cAMP Rel EC50, nM: 0.0926
